experiment: NCI Yeast Anticancer Drug Screen. Data for the sgs1 mgt1 strain (AID 161);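 note: 0% = growth of cultures given vehicle only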; details: S. cerevisiae sgs1 mgt1 strain, at 50.0 µM, active compounds read high
The panel holds about 79,000 compounds, 15% with a hit somewhere; the sample as a whole holds those more often.
The following compounds are shown together with reported growth inhibition values.
Give the quantity in %, number only.

Recorded growth inhibition, per entry:
OC(CC(O)(C(F)(F)F)C(F)(F)F)c1cccs1 (configuration not stated)
4.6
COc1cc(-c2cccs2)sc1-c1cccs1
31.4
CC1=NN2C(=O)CSC2=NC(C)(C)C1
7.45

Task item: GET /values?readout=growth inhibition&item= N=C(N)SCc1cccc(Cl)c1
Reply: -4.55

Task item: GET /values?readout=growth inhibition&item= O=C1C2CCOC2N=C2CCCN12 (configuration not stated)
Reply: -3.55

Task item: GET /values?readout=growth inhibition&item= Cc1ccc(N=C(N)NC#N)cc1
Reply: -27.1

Task item: GET /values?readout=growth inhibition&item= CC1C2(c3ccccc3)C(C(=O)c3ccccc3)NC(c3ccccc3)C12c1ccccc1 (configuration not stated)
Reply: 28.2

---

Assay: NCI Yeast Anticancer Drug Screen. Data for the sgs1 mgt1 strain (AID 161);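 note: 0% = growth of cultures given vehicle only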
Settings: S. cerevisiae sgs1 mgt1 strain, at 50.0 µM
Description: Growth inhibition of yeast strains with defined genetic alterations is measured as a screen for potential anti-cancer activity. Selected strains with alterations in DNA damage repair or cell cycle control were exposed to compounds and growth inhibition was measured relative to vehicle treated controls. The strain used in this assay is sgs1 mgt1
The panel holds about 79,000 compounds, 15% with a hit somewhere; the sample as a whole holds those more often. Active and inactive are the calls of the source. No stated cut-off is given here; in the data, active means growth inhibition above about 70%; inactive means the rest.
Respond only with the outcome that fits, drawn from active, inactive

C[C@@H]1Nc2ccccc2[C@H]1C
inactive
CCCOC(=O)OCCC
inactive
Clc1nncc(SCc2ccccc2)c1SCc1ccccc1
inactive
CCOc1ccc(N=Nc2c(C)nc(N)nc2-c2ccccc2)cc1
inactive
NC(=NCC(O)c1ccccc1)Nc1ccccc1 (stereo not drawn)
inactive
C/C=C\CCCCC
inactive
CC(C)C(=NNC(N)=O)C(C)C
inactive
Cc1cc(N=Nc2ccc(S(=O)(=O)O)c3ccccc23)ccc1O
inactive

Task item: Recorded call for CN1C/C(=C\c2ccc(N(C)C)cc2)C(=O)/C(=C/c2ccc(N(C)C)cc2)C1 ?
Reply: inactive

Task item: Recorded call for Cc1ccccc1CCCC(C(=O)O)C(=O)O ?
Reply: inactive

Task item: Recorded call for O=C(O)C(=O)Cc1ccccc1 ?
Reply: inactive

Task item: Recorded call for O=C1CCC2=C(N1)C(=O)C=CC2=O ?
Reply: inactive

Task item: Recorded call for COc1ccc(-c2nc(SCC(=O)O)n(-c3ccccn3)c2-c2ccc(OC)cc2)cc1 ?
Reply: active

---

test: NCI Yeast Anticancer Drug Screen. Data for the mec2-1 strain (AID 157); conditions: S. cerevisiae mec2-1 strain, at 50.0 µM
The panel holds about 79,000 compounds, 15% with a hit somewhere; the sample as a whole holds those more often. The source made the active and inactive calls. Rule as the data show it: active = growth inhibition above about 70%; inactive = the rest.
Respond only with the outcome that fits, drawn from Yes for active, No for inactive

# count of solved cases: 3
COc1ccc(C2CC(=O)C(C(=O)OC3CCCCC3)C2c2ccc(OC)cc2)cc1 (configuration not stated)
No
CN1C(=O)N(C)C(=O)C(C)(NS(=O)(=O)c2ccc(NC(=O)CCC(=O)O)cc2)C1=O
No
CCCC[N+](CCCC)(CCCC)CC(=O)[O-]
No

Task item: Recorded call for CC(=O)NC(C)c1ccc(N=NN2CCCC2)cc1 (configuration not stated) ?
Reply: No

Task item: Recorded call for N=c1ccn(CC(O)COc2ccccc2)cc1 (configuration not stated) ?
Reply: No

Task item: Recorded call for Clc1ccc(-c2cc(-c3ccc(Cl)cc3)n(-c3ccccc3)n2)cc1 ?
Reply: No

Task item: Recorded call for O=C1CCCC/C1=C\c1ccc([N+](=O)[O-])cc1 ?
Reply: No

Task item: Recorded call for Cc1ccc(-n2cc(/C(N)=N/O)c3ccccc3c2=O)cc1 ?
Reply: No
